Sourced from PubChem BioAssay AID743060

# assay-details: T. brucei methionyl-tRNA synthetase enzyme inhibition – biochemical, radioactivity, round 1, late-stage follow-up (AID 743060)
# condition-summary: purified enzyme, radiolabel aminoacylation, scintillation, 2 h; at 10 µM; stronger effect = higher value
Examples of compounds with documented inhibition follow.
assay-metric: inhibition (%)

[[record]]
compound = "CCCCCCCCCC1NC(C(=O)O)Cc2c1[nH]c1ccccc21 (configuration not stated)"
reported = 93.2

[[record]]
compound = "COc1ccccc1NS(=O)(=O)c1cccc(NC(=O)Nc2ccccc2)c1"
reported = 95.1

[[record]]
compound = "CCc1ccc2c(c1)c1nnc(SCC(=O)Nc3ccc4c(c3)OCO4)nc1n2C"
reported = -8.11

[[record]]
compound = "Cc1ccc(C(=O)NCCc2nc3ccccc3[nH]2)cc1C"
reported = -3.55

[[record]]
compound = "CCN(CCc1nc2ccc(C)cc2[nH]1)C(=O)c1ccc2ncccc2c1"
reported = -5.17

[[record]]
compound = "O=C(Cn1cc(C(=O)C2CC2)c2ccccc21)Nc1cccc(C(F)(F)F)c1"
reported = 31.3

[[record]]
compound = "O=C(C(=O)N1CCOCC1)c1cn(CC(=O)N2CCCc3ccccc32)c2ccccc12"
reported = -4.11

[[record]]
compound = "Cc1ccc(NC(=O)CN(C)C(=O)CCSc2ccc(F)cc2)cc1"
reported = 67.3

[[record]]
compound = "O=C(Cn1cc(C(=O)C(=O)N2CCCC2)c2ccccc21)Nc1ccccc1"
reported = 9.2

[[record]]
compound = "O=C(CC=NOCc1ccc([N+](=O)[O-])cc1)Nc1ccc(Br)cc1"
reported = 84.7

[[record]]
compound = "O=C(N/C(=C\\c1cccnc1)c1nc2ccccc2[nH]1)c1cccc(Br)c1"
reported = 71.7

[[record]]
compound = "O=C(Cn1cc(C(=O)c2ccco2)c2ccccc21)Nc1cccc(C(F)(F)F)c1"
reported = 89

[[record]]
compound = "O=C(NCc1nc2ccccc2[nH]1)C1=C[C@H](c2ccc(Br)cc2)C[C@H](OCCCCO)O1"
reported = 94.3

[[record]]
compound = "CCc1ccc2[nH]c3nc(SCC(=O)NCc4cccc(OC)c4)nnc3c2c1"
reported = 0.65

[[record]]
compound = "COc1cccc(NC(=O)CSc2nnc3c(n2)[nH]c2ccc(C)cc23)c1"
reported = 94.2

[[record]]
compound = "COc1cccc(NC(=O)C2CC(=O)n3c(nc4ccccc43)N2)c1 (configuration not stated)"
reported = 31.5

[[record]]
compound = "Cc1cc2cc(C(=O)N3CCCC(c4nc5ccccc5[nH]4)C3)ccc2o1 (configuration not stated)"
reported = 78.2

[[record]]
compound = "CC(C)(C)[C@H]1C=C(C(=O)NCc2nc3ccccc3[nH]2)O[C@@H](OCc2ccc(CO)cc2)C1"
reported = 83.8

[[record]]
compound = "Clc1ccc(-c2nnc(SCc3nc4ccccc4[nH]3)o2)c(Cl)c1"
reported = 97

[[record]]
compound = "O=C(NCc1nc2ccccc2[nH]1)C1=C[C@@H](C2CC2)C[C@@H](OCc2ccc(CO)cc2)O1"
reported = 93.6

[[record]]
compound = "Cc1ccc(C(=O)NCCc2nc3ccccc3[nH]2)cc1[N+](=O)[O-]"
reported = 86.4

[[record]]
compound = "COCCc1nc2ccc(C(=O)NCCc3nc4ccc(OC)cc4[nH]3)cc2o1"
reported = -2.59

[[record]]
compound = "Oc1c(Cl)cc(Cl)cc1CNc1nc2ccccc2[nH]1"
reported = 98.7

[[record]]
compound = "Brc1cnc2nc(SCc3nc4ccccc4[nH]3)[nH]c2c1"
reported = 84.9

[[record]]
compound = "CC(=O)c1ccc(N2CCN(C(=O)CCCn3c(=O)[nH]c4ccc(Br)cc4c3=O)CC2)cc1"
reported = 97

[[record]]
compound = "COc1ccc(NC(=O)CSc2nnc3c4cc(C)ccc4n(C)c3n2)cc1"
reported = -7.1

[[record]]
compound = "COc1ccc2[nH]c3nc(SCC(=O)Nc4ccc5c(c4)OCO5)nnc3c2c1"
reported = 65.6

[[record]]
compound = "O=C(NCc1nc2ccccc2[nH]1)C1=C[C@H](c2ccc(Br)cc2)C[C@H](OCc2ccc(CO)cc2)O1"
reported = 94.6

[[record]]
compound = "CC(=O)N(CCc1ccccc1)C1CC(=O)N(c2ccc(Cl)cc2)C1=O (configuration not stated)"
reported = -17.1

[[record]]
compound = "CCN(CC)C(=O)C(=O)c1cn(CC(=O)N(CC)c2ccccc2)c2ccccc12"
reported = -7.96

[[record]]
compound = "O=C(CSC1CC(=O)N(c2cccc(Cl)c2)C1=O)Nc1ccc(Br)cc1 (configuration not stated)"
reported = 79.9

[[record]]
compound = "Clc1ccc(OCCSCc2nc3ccccc3[nH]2)cc1"
reported = 44.8

[[record]]
compound = "COc1ccc(CCN(C(=O)c2cccc(F)c2)C2CC(=O)N(c3ccc(Br)cc3)C2=O)cc1 (configuration not stated)"
reported = -7.62

[[record]]
compound = "O=C(NNC(=O)c1cc(-c2ccc(Cl)c(Cl)c2)nc2ccccc12)Nc1ccccc1"
reported = 85.5

[[record]]
compound = "O=C1CC(NCCc2ccccc2)C(=O)N1c1ccc(Br)cc1 (configuration not stated)"
reported = -9

[[record]]
compound = "Cc1ccc(CNC(=O)CSc2nnc3c(n2)[nH]c2ccc(C)cc23)cc1"
reported = 71.3

[[record]]
compound = "CCN(CC)C(=O)C(=O)c1cn(CC(=O)Nc2cccc(C(F)(F)F)c2)c2ccccc12"
reported = 99.5

[[record]]
compound = "O=C(C[C@H]1C(=O)N(Cc2ccccc2)C[C@@H]1c1ccc(Br)cc1)Nc1ccc(Br)cc1"
reported = 94.4

[[record]]
compound = "CCCCn1c(CCNC(=O)c2ccc(F)cc2)nc2ccccc21"
reported = 2.32

[[record]]
compound = "O=C(NCc1nc2ccccc2[nH]1)C1=C[C@@H](c2csc3ccccc23)C[C@@H](OCCCCO)O1"
reported = 89.2

[[record]]
compound = "COc1ccccc1NC(=O)CSc1nnc2c(n1)[nH]c1ccc(C)cc12"
reported = 14.5

[[record]]
compound = "Cc1[nH]c2ccc(Br)cc2c(=O)c1CN1CCCCCC1"
reported = 86.6

